System: MBP-FoxP1dN (Mus musculus, UniProt P58462 326-579)
Sequence: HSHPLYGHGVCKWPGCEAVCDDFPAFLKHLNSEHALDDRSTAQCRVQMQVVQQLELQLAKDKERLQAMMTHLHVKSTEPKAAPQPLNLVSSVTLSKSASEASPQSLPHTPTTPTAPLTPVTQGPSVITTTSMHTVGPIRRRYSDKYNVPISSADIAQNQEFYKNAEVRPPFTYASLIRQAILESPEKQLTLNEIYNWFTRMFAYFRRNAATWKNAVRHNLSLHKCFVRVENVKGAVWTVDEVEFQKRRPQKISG
Protocol: PD-seq (MBP pull-down with sequencing); 20 mM Tris-HCl pH 7.5, 100 mM NaCl, 1.5 mM MgCl2, 0.4 uM protein, 0.1 uM dsDNA library, 30 min, room temperature, amylose pull-down; high values mean tight binding
Experimental setup: protein: recombinant; tags: His6-MBP; chain copies: 2; dsDNA, one strand shown
Whole data set: some 16,000 sequences, median “rpm ratio (pull-down/input)” near 0.94, cut for the highest 2% near 1.7. The entries come from a sample that favours the highest values as a whole.
Reported metric: binding signal

In [3]: df
Out[3]:
                              sequence_text  reported_metric                experimental_result
0  GATGATTGTTCTCCCAGCTGATGAATTTTAGCGCTCGAGTAAACAAATTTTCCTAATCTTTCTGTTCAAGCGCCATCTAC   binding signal  0.826 RPM ratio (pull-down/input)
1  GATGATTGTTCTCCCAGCTGATGAATTGCATTTTTCGAGTAAACAAATTTTCCTAATCTTTCTGTTCAAGCGCCATCTAC   binding signal   1.69 RPM ratio (pull-down/input)
2  GATGATTGTTCTCCCAGCTGATGAATTCTGTGGATCGAGTAAACAAATTTTCCTAATCTTTCTGTTCAAGCGCCATCTAC   binding signal  0.956 RPM ratio (pull-down/input)
3  GATGATTGTTCTCCCAGCTGATGAATTCGGGTTCTCGAGTAAACAAATTTTCCTAATCTTTCTGTTCAAGCGCCATCTAC   binding signal  0.806 RPM ratio (pull-down/input)
4  GATGATTGTTCTCCCAGCTGATGAATTAGAAAGTTCGAGTAAACAAATTTTCCTAATCTTTCTGTTCAAGCGCCATCTAC   binding signal  0.938 RPM ratio (pull-down/input)
5  GATGATTGTTCTCCCAGCTGATGAATTAACACGCTCGAGTAAACAAATTTTCCTAATCTTTCTGTTCAAGCGCCATCTAC   binding signal   1.02 RPM ratio (pull-down/input)
6  GATGATTGTTCTCCCAGCTGATGAATTCACTCCCTCGAGTAAACAAATTTTCCTAATCTTTCTGTTCAAGCGCCATCTAC   binding signal  0.792 RPM ratio (pull-down/input)

----------
System: MBP-FoxP1dN (Mus musculus, UniProt P58462 326-579)
Sequence: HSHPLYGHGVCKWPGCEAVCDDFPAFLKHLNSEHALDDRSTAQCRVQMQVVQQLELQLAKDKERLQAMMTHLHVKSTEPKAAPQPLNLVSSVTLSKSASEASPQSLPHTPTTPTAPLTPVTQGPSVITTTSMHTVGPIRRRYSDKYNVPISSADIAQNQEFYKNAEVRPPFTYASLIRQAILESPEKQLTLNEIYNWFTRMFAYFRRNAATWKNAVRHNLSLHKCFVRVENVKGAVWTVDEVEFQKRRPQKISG
Protocol: PD-seq (MBP pull-down with sequencing); 20 mM Tris-HCl pH 7.5, 100 mM NaCl, 1.5 mM MgCl2, 0.4 uM protein, 0.1 uM dsDNA library, 30 min, room temperature, amylose pull-down; high values mean tight binding
Experimental setup: protein: recombinant; tags: His6-MBP; chain copies: 2; dsDNA, one strand shown
The full ranking holds about 16,000 sequences; the median of “rpm ratio (pull-down/input)” is about 0.94, and the highest 2% start at about 1.7. The full list was thinned out, with the highest values kept by preference.
Reported metric: binding signal

>>> df
                               sequence_text                                    system  reported_metric                experimental_result
 0  GATGATTGTTCTCCCAGCTGATGAATTATATGAGTCGAGTAAACAAATTTTCCTAATCTTTCTGTTCAAGCGCCATCTAC  MBP-FoxP1dN (Mus musculus, UniProt P58462 326-579)   binding signal  0.962 RPM ratio (pull-down/input)
 1  GATGATTGTTCTCCCAGCTGATGAATTGTCTCCATCGAGTAAACAAATTTTCCTAATCTTTCTGTTCAAGCGCCATCTAC  MBP-FoxP1dN (Mus musculus, UniProt P58462 326-579)   binding signal   1.11 RPM ratio (pull-down/input)
 2  GATGATTGTTCTCCCAGCTGATGAATTCGTCTACTCGAGTAAACAAATTTTCCTAATCTTTCTGTTCAAGCGCCATCTAC  MBP-FoxP1dN (Mus musculus, UniProt P58462 326-579)   binding signal  0.938 RPM ratio (pull-down/input)
 3  GATGATTGTTCTCCCAGCTGATGAATTAGACAGTTCGAGTAAACAAATTTTCCTAATCTTTCTGTTCAAGCGCCATCTAC  MBP-FoxP1dN (Mus musculus, UniProt P58462 326-579)   binding signal  0.913 RPM ratio (pull-down/input)
 4  GATGATTGTTCTCCCAGCTGATGAATTGAAAGCATCGAGTAAACAAATTTTCCTAATCTTTCTGTTCAAGCGCCATCTAC  MBP-FoxP1dN (Mus musculus, UniProt P58462 326-579)   binding signal    1.2 RPM ratio (pull-down/input)
 5  GATGATTGTTCTCCCAGCTGATGAATTCCCTCCATCGAGTAAACAAATTTTCCTAATCTTTCTGTTCAAGCGCCATCTAC  MBP-FoxP1dN (Mus musculus, UniProt P58462 326-579)   binding signal  0.855 RPM ratio (pull-down/input)
 6  GATGATTGTTCTCCCAGCTGATGAATTTATCAGATCGAGTAAACAAATTTTCCTAATCTTTCTGTTCAAGCGCCATCTAC  MBP-FoxP1dN (Mus musculus, UniProt P58462 326-579)   binding signal   1.03 RPM ratio (pull-down/input)
 7  GATGATTGTTCTCCCAGCTGATGAATTACTGACCTCGAGTAAACAAATTTTCCTAATCTTTCTGTTCAAGCGCCATCTAC  MBP-FoxP1dN (Mus musculus, UniProt P58462 326-579)   binding signal   0.91 RPM ratio (pull-down/input)
 8  GATGATTGTTCTCCCAGCTGATGAATTGTGTTTGTCGAGTAAACAAATTTTCCTAATCTTTCTGTTCAAGCGCCATCTAC  MBP-FoxP1dN (Mus musculus, UniProt P58462 326-579)   binding signal    2.8 RPM ratio (pull-down/input)
 9  GATGATTGTTCTCCCAGCTGATGAATTTTCTGTGTCGAGTAAACAAATTTTCCTAATCTTTCTGTTCAAGCGCCATCTAC  MBP-FoxP1dN (Mus musculus, UniProt P58462 326-579)   binding signal  0.968 RPM ratio (pull-down/input)
10  GATGATTGTTCTCCCAGCTGATGAATTGGATGTATCGAGTAAACAAATTTTCCTAATCTTTCTGTTCAAGCGCCATCTAC  MBP-FoxP1dN (Mus musculus, UniProt P58462 326-579)   binding signal    1.1 RPM ratio (pull-down/input)
11  GATGATTGTTCTCCCAGCTGATGAATTAAGTTGATCGAGTAAACAAATTTTCCTAATCTTTCTGTTCAAGCGCCATCTAC  MBP-FoxP1dN (Mus musculus, UniProt P58462 326-579)   binding signal   1.17 RPM ratio (pull-down/input)
12  GATGATTGTTCTCCCAGCTGATGAATTTGCGATATCGAGTAAACAAATTTTCCTAATCTTTCTGTTCAAGCGCCATCTAC  MBP-FoxP1dN (Mus musculus, UniProt P58462 326-579)   binding signal   1.19 RPM ratio (pull-down/input)
13  GATGATTGTTCTCCCAGCTGATGAATTTGATTCCTCGAGTAAACAAATTTTCCTAATCTTTCTGTTCAAGCGCCATCTAC  MBP-FoxP1dN (Mus musculus, UniProt P58462 326-579)   binding signal  0.839 RPM ratio (pull-down/input)
14  GATGATTGTTCTCCCAGCTGATGAATTTTTAATCTCGAGTAAACAAATTTTCCTAATCTTTCTGTTCAAGCGCCATCTAC  MBP-FoxP1dN (Mus musculus, UniProt P58462 326-579)   binding signal  0.864 RPM ratio (pull-down/input)
15  GATGATTGTTCTCCCAGCTGATGAATTAAATATTTCGAGTAAACAAATTTTCCTAATCTTTCTGTTCAAGCGCCATCTAC  MBP-FoxP1dN (Mus musculus, UniProt P58462 326-579)   binding signal   1.14 RPM ratio (pull-down/input)
16  GATGATTGTTCTCCCAGCTGATGAATTAGTAACATCGAGTAAACAAATTTTCCTAATCTTTCTGTTCAAGCGCCATCTAC  MBP-FoxP1dN (Mus musculus, UniProt P58462 326-579)   binding signal   1.45 RPM ratio (pull-down/input)
17  GATGATTGTTCTCCCAGCTGATGAATTAATATTGTCGAGTAAACAAATTTTCCTAATCTTTCTGTTCAAGCGCCATCTAC  MBP-FoxP1dN (Mus musculus, UniProt P58462 326-579)   binding signal   2.15 RPM ratio (pull-down/input)
18  GATGATTGTTCTCCCAGCTGATGAATTCTTTGTGTCGAGTAAACAAATTTTCCTAATCTTTCTGTTCAAGCGCCATCTAC  MBP-FoxP1dN (Mus musculus, UniProt P58462 326-579)   binding signal   1.06 RPM ratio (pull-down/input)
19  GATGATTGTTCTCCCAGCTGATGAATTGTTTGTATCGAGTAAACAAATTTTCCTAATCTTTCTGTTCAAGCGCCATCTAC  MBP-FoxP1dN (Mus musculus, UniProt P58462 326-579)   binding signal   2.64 RPM ratio (pull-down/input)
